assay_remarks: Concentration of dissolved indolocarbazole obtained in aqueous solutions (HPLC)
condition_context: 50% peg 400, 50% h2o, organic solvent or mixture, Concentration Obtained, Example 1: 50% PEG 400, 50% H2O; target 10 mg/ml
measured_endpoint: solubility thermodynamic (µg/mL)
Provide the reading as a plain figure in µg/mL.

Check out these entries, answers already filled in.
COC(=O)C1(O)CC2OC1(C)n1c3ccccc3c3c4c(c5c6ccccc6n2c5c31)C(=O)NC4 (stereo not drawn) [Compound K-252a] ... 1390
COC(=O)C1(O)CC2OC1(C)n1c3ccccc3c3c4c(c5c6cc(O)ccc6n2c5c31)C(=O)NC4 (stereo not drawn) ... 3150

Let us examine a further case.
Summary for this compound, CN[C@@H]1C[C@H]2O[C@@](C)([C@@H]1OC)n1c3ccccc3c3c4c(c5c6ccccc6n2c5c31)C(=O)NC4 : solubility thermodynamic is 710
